System: OVCAR-5 ovarian
Assay: NCI-60 one-dose screen, 48 h
Conditions: 10 µM
The panel holds about 83,000 compounds, 20% with a hit somewhere; the sample as a whole holds those more often. Active and inactive are the calls of the source. How the source made its calls: active means growth percent below 10; inactive means the rest.
Could you please pick one outcome from this set? 1 (active), 0 (inactive)

Would you please look over these solved cases?
INSERT INTO results (compound, assay_target, group_label) VALUES
  ('N#CCCN1C/C(=C/c2ccc(Cl)cc2)C(=O)/C(=C/c2ccc(Cl)cc2)C1', 'OVCAR-5 ovarian', 1),
  ('O=C1NC(=O)c2ncccc21', 'OVCAR-5 ovarian', 0),
  ('C/C(N)=C(\C#N)C(=O)c1ccccc1', 'OVCAR-5 ovarian', 0),
  ('Nc1ccn(C2CC(O)C(CO)O2)c(=O)n1 (configuration not stated)', 'OVCAR-5 ovarian', 0),
  ('CCC1(C(C)C)NC(=O)NC1=O (configuration not stated)', 'OVCAR-5 ovarian', 0);

Recorded test call requested for CC(=O)N1C/C(=C/c2ccc(Cl)cc2)C(=O)/C(=C/c2ccc(Cl)cc2)C1
0

Which outcome was assigned to Nc1nc(Nc2ccccc2)n[nH]1 in this test?
0

For COc1ccc(-c2nc3sccn3c2-c2nc3c([nH]2)C(=O)c2ccccc2C3=O)cc1 , what call appears in the results of this test?
0

Short answer needed: outcome of this test for N#CSCC1CC(O)(c2ccccc2)CC(c2ccc(Cl)cc2)O1 (configuration not stated) ?
0

Which outcome did this test record for the compound Cn1c([N+](=O)[O-])cnc1/C=C1\Oc2ccc(Cl)cc2C1=O ?
1

I would be grateful if you could indicate the recorded call for N#Cc1ncc(Br)c(NC2CCCCCC2)n1 .
0

Please share the test call associated with Cc1cc(Cc2cc(C)c(O)c(C)c2)cc(C)c1O .
0

* * *

Tested on: NCI-H460 lung
Experiment: NCI-60 one-dose screen, 48 h (100 = growth as untreated, 0 = no growth, -100 = all killed)
Conditions: 10 µM
Compounds without any hit were thinned out: in the full panel of roughly 83,000, 20% have a hit.
In this section, each of the compounds is paired with its reported growth.
Response body: numeric value in %, unit text excluded.

Completed entries (count: 2):
INSERT INTO assay_data (compound, readout_kind, experimental_result) VALUES
  ('N#CC1=C(Nc2ccccc2Cl)SC(c2ccccc2O)NC1=O (stereo not drawn)', 'growth', 121),
  ('CCCCCCN(CCCCCC)CC(O)c1ccc2c3c(cccc13)CC2 (stereo not drawn)', 'growth', 42.6);

Entry under review: Clc1ccccc1N=Cc1ccc2c(c1)OCO2 . Reported growth?
116

Using the record for CCOC(=O)N/N=C\C(C)=N\NC(=O)OCC , report its growth.
102

Which growth value belongs to CCC(=O)N1C/C(=C/c2ccc(OC)cc2)C(=O)/C(=C/c2ccc(OC)cc2)C1 ?
61.4

I'd like to know its growth. The compound in question is O=C(Nc1ccc(CN2CCc3nc4cc(O)c(O)cc4cc32)cc1)c1ccc(Cl)c(Cl)c1
102

So what does the record say about growth for O=C(CCCCCCC(=O)Nc1cccnc1)NO ?
39.9

# input compound: CC(C)=CCc1ccc(O)c(=O)cc1C(C)C ; wanted: its growth
5.04

Which growth value belongs to CC(C)=NNc1ncnc2c1ncn2C1OC(CO)C(O)C1O (stereo not drawn) ?
-2.28

For the compound COc1cc(/C=C\c2cc(OC)c(OC)c(OC)c2)cc(NS(=O)(=O)c2ccc(Cl)cc2)c1OC , what growth is on record?
13.8

Which growth reading was recorded for the compound O=C(N/N=C/c1cc2ccccc2c2ccccc12)c1cc(O)c(O)c(O)c1 ?
88.1

Please report the recorded growth for COc1cc2c(cc1OC)N(CCO)C1=C(C(=O)OC1)C2c1ccc(Cl)c(Cl)c1 (stereo not drawn) .
104

// lookup growth for Cc1nc2ccc(CN(C)c3ccc(C(=O)N[C@@H](CCC(=O)O)C(=O)O)s3)cc2c(=O)[nH]1
29.1

Give the measured growth of C/C(N)=C(\C#N)C(=O)c1ccccc1 .
103

What value of growth has been recorded for this entry: COc1cc(NC(=O)CCSc2nc3ccc(Cl)cc3c(=O)n2Cc2ccccc2)cc(OC)c1OC
81.8
